Assay: small-molecule binders of probe aNOTCH2, primary screen, biochemical, small-molecule microarray, 635/667 nm fluorescence (AID 1121);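 further: score merges feature fluorescence read at 667 nm with its signal to noise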
Conditions: higher = more signal
# composite z-score >= -0.07 gives 1, anything below gives -1

Molecule	Class Assignment
O=C1O[C@@H](c2ccccc2)[C@@H](c2ccccc2)N2[C@@H](c3ccc(O)cc3)[C@]3(C(=O)Nc4ccc(C#CC5=CCCCC5)cc43)[C@@H](C(=O)N3CCCCCCC3)[C@H]12	1

Q) Does composite z-score meet or surpass -0.07 for CC1(C)OC[C@@]23C=C(Br)[C@@H](C[C@H]12)[C@@]1(CO1)C3=O ?
A) -1

Q) Does composite z-score meet or surpass -0.07 for C=CCC(OC(C)=O)[C@@H]1[C@@H](N(Cc2cc3ccccc3o2)C(=O)Cc2ccc(OC)cc2)c2cc(OCCCO)ccc2N1C(=O)Cc1ccc(OC)cc1 (stereo not given in full) ?
A) -1

* * *

Assay: small-molecule microarray binders of probe aWnt5a, primary screen, biochemical, biotinylated probe, 635/667 nm fluorescence (AID 1113);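 further: score merges 667 nm fluorescence intensity with signal-to-noise per printed feature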
Settings: higher = more signal
# maps each entry to its composite z-score
Form field (numeric): enter value without unit.

These solved cases illustrate the format of a correct answer.
CCOC(=O)C1=CC[C@@H](c2ccc(F)cc2)N(S(=O)(=O)c2ccc(C)cc2)[C@H]1c1ccc([N+](=O)[O-])cc1 0.0323
O=C1c2ccccc2[C@@]2(Cc3ccccc3N(Cc3ccccc3)C2=O)[C@H](c2ccc(CO)cc2)N1Cc1ccccc1 -0.236

Now turn to the next compound.
The compound listed as CC(C)=CCN(C(=O)C#Cc1ccccc1)[C@H](CO)c1ccccc1 has a reported composite z-score of -0.0346

* * *

Molecular target: Left-right determination factor 2 (Homo sapiens) (UniProt O00292)
Sequence (O00292 whole entry, looked up): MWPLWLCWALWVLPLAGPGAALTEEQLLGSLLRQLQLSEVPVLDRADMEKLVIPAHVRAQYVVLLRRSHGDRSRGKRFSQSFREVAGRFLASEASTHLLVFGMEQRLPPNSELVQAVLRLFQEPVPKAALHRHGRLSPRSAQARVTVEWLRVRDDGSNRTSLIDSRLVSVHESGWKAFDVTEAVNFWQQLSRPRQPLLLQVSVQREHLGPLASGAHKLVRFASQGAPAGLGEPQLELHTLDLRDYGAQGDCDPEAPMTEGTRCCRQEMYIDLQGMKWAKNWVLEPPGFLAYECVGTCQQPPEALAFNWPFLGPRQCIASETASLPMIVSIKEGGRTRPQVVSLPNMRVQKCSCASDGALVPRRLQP
Test: LEFTY2 binders on small-molecule microarrays, primary screen, biochemical, small-molecule microarray, 635 nm fluorescence scan (AID 1110)
Details: LEFTY2 binding, higher = more signal
# maps each entry to its composite z-score
Form field (numeric): enter value without unit.

These solved cases illustrate the format of a correct answer.
COc1ccc(CCNC(=O)[C@@]2(C)c3ccccc3C(=O)N(Cc3cc(C(F)(F)F)cc(C(F)(F)F)c3)[C@H]2c2ccc(CO)cc2)cc1 0.0779
C=CC[C@@]1(C(=O)N(C)C)N=C(c2ccc(OCCCO)cc2)O[C@@H]1c1ccccc1 0.191
CCCCC(=C=CC[C@H](O)c1ccc(OCCO)cc1)C[C@H](O)c1ccccn1 0.295
CCOC(=O)C[C@H]1[C@H](OC(=O)c2ccc(-c3ccccc3)cc2)[C@@H](NC(=O)CC(C)C)c2cc(OCCCO)ccc2N1C(=O)Cc1ccc(OC)cc1 0.141
O=C1N(CCS(=O)(=O)c2ccccc2)c2ccccc2[C@@H]2OC(c3ccc(OCCCO)cc3)=N[C@]12CCS(=O)(=O)c1ccccc1 0.8
Cc1ccc(S[C@]2(C(=O)NCCN3CCOCC3)CC(=O)N(C3CCCCC3)[C@@H]2c2ccc(CO)cc2I)cc1 0.134
CCCC=C(CCC)[C@@H](NC(=O)c1ccccc1)c1ccc(C(=O)OC)cc1 0.898
C=CCNC(=O)[C@@H]1[C@H]2C(=O)O[C@H](c3ccccc3)[C@H](c3ccccc3)N2[C@H](c2ccccc2OCCO)[C@@]12C(=O)N(C(=O)OCCOC)c1ccc(C#CCCO)cc12 0.0333
C[C@]1(C(=O)NCC(F)(F)F)c2ccccc2C(=O)N(Cc2ccc(OC(F)(F)F)cc2)[C@H]1c1ccc(CO)cc1 -0.143

Now turn to the next compound.
The compound listed as CCOC(=O)C[C@H]1[C@H](OC(=O)c2ccc(C(=O)c3ccccc3)cc2)[C@@H](NC(=O)c2ccc3ccccc3c2)c2cc(OCCCO)ccc2N1C(=O)c1ccc2ccccc2n1 has a reported composite z-score of 0.23

* * *

Test: basal RPMI8226 viability, no added stimulus, profiling panel, cell-based, calcein-AM fluorescence, 48 h, PK04 Diversity Set (AID 1166);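 further: cells grown under basal conditions without added stimulus; test concentration not given here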
Settings: RPMI8226 myeloma viability, higher = more signal
# maps each entry to its z-score
Form field (numeric): enter value without unit.

Molecule	z-score
C=CCOC(=O)[C@@H]1[C@H]2C(=O)O[C@H](c3ccccc3)[C@H](c3ccccc3)N2[C@H](c2ccc(OCCOC(=O)[C@H]3C[C@H]4C(=O)NCC(=O)N4[C@H]3c3ccc(O)cc3)cc2)[C@@]12C(=O)Nc1ccc(I)cc12	-0.0622

The molecule listed as CCOC(=O)C1=CC[C@@H](c2ccccc2)N(S(=O)(=O)C[Si](C)(C)C)[C@H]1c1ccccc1 has a reported z-score of 0.242

The molecule listed as O=C1OCCC=C[C@H]2OC34C=CCN(CCN5CCOCC5)C(=O)[C@H]3N(CCCO)C(=O)[C@@H]4C12 (stereo partly drawn) has a reported z-score of -0.0605

* * *

System: Sam68 (KHDRBS1)
Experiment: Sam68 small-molecule binders, primary screen, biochemical, small-molecule microarray, 635 nm fluorescence (AID 1125);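 further: score merges 667 nm channel intensity with signal to noise over triplicate slides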
Details: small-molecule microarray binding, higher = more signal
# maps each entry to its composite z-score
Form field (numeric): enter value without unit.

These solved cases illustrate the format of a correct answer.
Compound	Target Entity	Measured Property	Observed
COc1ccc(NN2C(C(O)c3cc(C(F)(F)F)cc(C(F)(F)F)c3)C=CC3C(=O)N(C4CCCCC4)C(=O)C32)cc1 (stereo unspecified)	Sam68 (KHDRBS1)	composite z-score	1.07
CC(C)CNC(=O)[C@@H]1c2ccccc2C(=O)N(Cc2ccccc2Cl)[C@H]1c1ccc(CO)cc1	Sam68 (KHDRBS1)	composite z-score	-0.537
CCCC=C(CCC)[C@@H](NC(=O)c1ccco1)c1ccc(C(=O)OC)cc1	Sam68 (KHDRBS1)	composite z-score	1.31
O=C1O[C@@H](c2ccccc2)[C@@H](c2ccccc2)N2[C@@H](c3ccc(OCCO)cc3)[C@]3(C(=O)Nc4ccc(C#CCCO)cc43)[C@@H](C(=O)Nc3nc4ccccc4s3)[C@H]12	Sam68 (KHDRBS1)	composite z-score	1.3

The compound listed as CC1(C)OC[C@@]23C=C(Br)[C@@H](C[C@H]12)[C@@]1(CO1)C3=O has a reported composite z-score of 0.107

The compound listed as O=C1NC(=O)C2C1C=CC(C(O)c1ccc(F)cc1)N2Nc1ccccn1 (stereo unspecified) has a reported composite z-score of -0.288

* * *

Experiment: binders of probe aHhip on microarray, primary screen, stem cell growth factor project, biochemical, small-molecule microarray, fluorescence 635/667 (AID 1087);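 further: score merges spot fluorescence at 667nm with spot signal to noise ratio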
Conditions: higher = more signal
# composite z-score >= -0.2 gives Met, anything below gives Not met

Q) Does composite z-score meet or surpass -0.2 for CCN(CC)c1ccc(N2CC=CC34O[C@@H]5C=CCOC(=O)[C@@H]5[C@H]3C(=O)N(CCCO)[C@@H]4C2=O)cc1 (stereo partly specified) ?
A) Met

Q) Does composite z-score meet or surpass -0.2 for Cc1ccc(F)cc1S(=O)(=O)N[C@@H]1CCN(Cc2ccc3c(c2)OCO3)C1 ?
A) Met

* * *

Experiment: P. aeruginosa biofilm formation inhibitors, primary screen, PAO1 strain, BacTiter-Glo luminescence, LB-PBS (AID 1144)
Settings: 12 h, higher = more signal
# maps each entry to its z-score
Form field (numeric): enter value without unit.

These solved cases illustrate the format of a correct answer.
Molecule	z-score
COC(=O)[C@@]1(Cc2ccc(OC)cc2)[C@H]2c3cc(C(=O)N4CCCC4)n(CCc4ccc(OC)c(Br)c4)c3C[C@H]2CN1C(=O)c1ccccc1	0.24
CCCC=C(CCC)[C@@H](NS(=O)(=O)c1ccc(Cl)cc1)c1ccccc1	-0.527
CN1C(=O)C2C(C1=O)C1C=C(c3ccc(CO)cc3)C2C(c2cccs2)N1C (centres undefined)	2.04

Now turn to the next molecule.
The molecule listed as CCOC(=O)C[C@H]1[C@H](OC(=O)c2ccc(C(=O)c3ccccc3)cc2)[C@@H](NC(=O)c2ccc3ccccc3c2)c2cc(OCCCO)ccc2N1C(=O)c1ccc2ccccc2n1 has a reported z-score of -0.0217

* * *

System: Human papillomavirus type 1a E7 protein (residues 1-88)
Assay: HPV1a E7 small-molecule binders, primary screen, biochemical, small-molecule microarray, residues 1-88, 635 nm (AID 1129)
Conditions: small-molecule microarray binding, fluorescence 635 nm; higher = more signal
# composite z-score >= -0.2 gives YES, anything below gives NO

Check out these entries, answers already filled in.
Compound	Class Assignment
C=CC[C@]1(C(=O)OC)N=C(c2ccc(OCCCO)cc2)O[C@H]1c1ccccc1N=[N+]=[N-]	YES
CCCC[C@H]1OB(O)C[C@H]2C1=C(COC)C[C@H]1C(=O)C=CC(=O)[C@H]12	YES
COC(=O)C1=CC(CCCO)=CC(c2ccc(CN3CCCC3)cc2)N(Cc2sc3ccccc3c2Cl)C=C1C(=O)OC (stereo not drawn)	YES
CN(C)CCCC[C@@H]1NC(=O)[C@H]2C[C@@H](C(=O)O)[C@@H](c3cccc(OCCO)c3)N2C1=O	NO
CCCCN1CC=CC23O[C@@H]4C=CCOC(=O)[C@@H]4[C@H]2C(=O)N(C(CO)C(C)C)[C@@H]3C1=O (stereo partly drawn)	NO

Q) Does composite z-score meet or surpass -0.2 for COc1ccc(CCNC(=O)[C@@]2(Sc3ccc(C)cc3)CC(=O)N(C(C)C)[C@@H]2c2ccc(CO)cc2)cc1 ?
A) NO

Q) Does composite z-score meet or surpass -0.2 for CC(C)c1ccc(NN2C(C(O)C(C)C)C=CC3C(=O)N(c4ccccc4)C(=O)C32)cc1 (stereo not drawn) ?
A) YES

Q) Does composite z-score meet or surpass -0.2 for CC(C)N1CC=CC23O[C@@H]4C=CCCOC(=O)C4[C@H]2C(=O)N(CCCCCO)[C@@H]3C1=O (stereo partly drawn) ?
A) NO
